Data credit: patent US7371414B2

- System: CYP2A6
- test.description: In vivo phenotype assay: plasma kinetics of nicotine and coumarin after oral administration by CYP2A6 genotype
- assay.conditions: both, human, 4 mg, plasma nicotine, 90 min after nicotine 4.0 mg oral, genotype *2/*2
readout: concentration at 90 min
Units required after the number.

stdin: Could you please provide reported concentration at 90 min for CN1CCCC1c1cccnc1 (stereo not shown) ? Thanks!
stdout: 52 nM

---

- System: CYP2A6
- test.description: In vivo phenotype assay: plasma kinetics of nicotine and coumarin after oral administration by CYP2A6 genotype
- assay.conditions: both, human, 4 mg, plasma nicotine, 90 min after nicotine 4.0 mg oral, genotype *1/*1
readout: concentration at 90 min (nM)
Use nM as the unit, but write only the number.

stdin: Could you please provide reported concentration at 90 min for CN1CCCC1c1cccnc1 (stereo not shown) ? Thanks!
stdout: 24
